Reported values of protein stability index for individual entries
B1: KLHL12 (parent)
chain: REESLPNLLQYVRMPLLTPRYITD

# Variants of: B1
# protocol-notes: protein stability index of a GFP-peptide fusion (GPS, HEK-293T) (PSI 1-6); higher = more stable;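 further: lentivirally expressed fusions sorted by FACS into six bins by GFP to DsRed ratio, PSI derived from sequencing read proportions per bin multiplied by bin number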
# condition: c terminus: a fixed tail appended
measure: protein stability index

- RIESLPNLLQYVRMPLLTPRYITD: 2.5
- REESLPNLLQLVRMPLLTPRYITD: 2.09
- REESAPNLLQYVRMPLLTPRYITD: 3.47
- REESLPNLLQYVRMPYLTPRYITD: 2.98
- DEESLPNLLQYVRMPLLTPRYITD: 2.63
- REESLPNLLQYVRMPLLTDRYITD: 2.9
- REESLPYLLQYVRMPLLTPRYITD: 1.71
